These entries and their values trace back to patent US8293729B2.

Listing of entries alongside the reported EC50.
assay system: human GPR119 receptor (Homo sapiens, UniProt Q8TDV5, S329A/T327A)
Construct: N-terminal leader […]; expressed in transfected cells
Sequence (Q8TDV5 with tags, fused parts or gaps T327A/S329A): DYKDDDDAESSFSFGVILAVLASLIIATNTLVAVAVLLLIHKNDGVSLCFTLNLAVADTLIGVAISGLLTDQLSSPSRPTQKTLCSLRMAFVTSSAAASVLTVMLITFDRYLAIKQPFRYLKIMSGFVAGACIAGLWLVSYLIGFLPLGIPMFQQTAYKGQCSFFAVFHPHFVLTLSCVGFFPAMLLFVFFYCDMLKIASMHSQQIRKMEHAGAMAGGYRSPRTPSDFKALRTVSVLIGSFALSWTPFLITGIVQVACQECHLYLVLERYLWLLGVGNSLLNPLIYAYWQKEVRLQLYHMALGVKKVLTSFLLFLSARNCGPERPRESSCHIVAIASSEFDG
experiment notes: cAMP assay (LANCE cAMP-384) in HEK293 cells stably expressing mutant human GPR119 receptor
Assay type: cell-based
experimental conditions: cAMP accumulation, HEK293 cells stably expressing mutant human GPR119; read-out: EC50
Just the number please, in nM, no unit attached.

// below: answered molecules
CC(C)OC(=O)N1CCC(ON=C2CCN(c3ccncc3F)CC2)CC1
750
CC(C)OC(=O)N1CCC(ON=C2CCN(c3cc(F)c(-c4ccc5[nH]ccc5c4)cc3F)CC2)CC1
1380
CC(C)OC(=O)N1CCC(ON=C2CCN(c3ccnc(Cl)n3)CC2)CC1
1880
CC(C)OC(=O)N1CCC(ON=C2CCN(c3cc(F)c(C(=O)NCCN)cc3F)CC2)CC1
348
CC(C)OC(=O)N1CCC(ON=C2CCN(c3cc(F)c(C(=O)NCC(=O)O)cc3F)CC2)CC1
1130

Given CC(C)OC(=O)N1CCC(ON=C2CCN(c3nccnc3Cl)CC2)CC1 , state its recorded EC50.
363

Given CC(C)OC(=O)N1CCC(ON=C2CCN(c3cc(F)c(-n4cncn4)cc3F)CC2)CC1 , state its recorded EC50.
33

Given CC(C)OC(=O)N1CCC(ON=C2CCN(c3cc(F)c(/C=C/C(=O)O)cc3F)CC2)CC1 , state its recorded EC50.
2570

====

Listing of entries alongside the reported EC50.
assay system: human GPR119 receptor (Homo sapiens, UniProt Q8TDV5, S329A/T327A)
Construct: N-terminal leader […]; expressed in transfected cells
experiment notes: cAMP assay (LANCE cAMP-384) in HEK293 cells stably expressing mutant human GPR119 receptor
Type: cell-based
experimental conditions: the 15th table; read-out: EC50
State the result as a value with its unit after it.

// below: answered compounds
CC(C)OC(=O)N1CCC(ON=C2CCN(c3cc(F)c(C(=O)NCCN)cc3F)CC2)CC1
0.381 µM
CC(C)OC(=O)N1CCC(ON=C2CCN(c3cc(F)c(C(=O)N4CCC(CN(C)C)CC4)cc3F)CC2)CC1
0.264 µM
CC(CO)NC(=O)c1cc(F)c(N2CCC(=NOC3CCN(C(=O)OC(C)C)CC3)CC2)cc1F (stereo not shown)
0.081 µM

Next up:
Given CC(C)OC(=O)N1CCC(ON=C2CCN(c3cc(F)c(C(=O)N4CCC[C@@H]4CN)cc3F)CC2)CC1 , state its recorded EC50.
0.133 µM

====

assay system: human GPR119 receptor (Homo sapiens, UniProt Q8TDV5, S329A/T327A)
Construct: N-terminal leader […]; expressed in transfected cells
experiment notes: cAMP assay (LANCE cAMP-384) in HEK293 cells stably expressing mutant human GPR119 receptor
Assay type: cell-based
experimental conditions: the 37th table, compounds 66-52 to 66-64; read-out: EC50
endpoint label: log10 EC50 (log10 of the value in nM)
Use the decimal logarithm of EC50 (nM).

// below: answered compounds
CCc1ccc(CN2CCC(ON=C3CCN(c4cc(F)c(S(C)(=O)=O)cc4F)CC3)CC2)cc1 [Example 66-55]
1.57
CCc1ccc([C@H](C)N2CCC(ON=C3CCN(c4cc(F)c(S(C)(=O)=O)cc4F)CC3)CC2)cc1 [Example 66-63]
2.47
CS(=O)(=O)c1cc(F)c(N2CCC(=NOC3CCN(Cc4ccc(-c5ccccn5)cc4)CC3)CC2)cc1F [Example 66-52]
2.97

Next up:
Given CCCc1ccc(CN2CCC(ON=C3CCN(c4cc(F)c(S(C)(=O)=O)cc4F)CC3)CC2)c(F)c1 [Example 66-59] , state its recorded log10 EC50.
1.72

====

assay system: human GPR119 receptor (Homo sapiens, UniProt Q8TDV5, S329A/T327A)
Construct: N-terminal leader […]; expressed in transfected cells
Sequence (Q8TDV5 with tags, fused parts or gaps T327A/S329A): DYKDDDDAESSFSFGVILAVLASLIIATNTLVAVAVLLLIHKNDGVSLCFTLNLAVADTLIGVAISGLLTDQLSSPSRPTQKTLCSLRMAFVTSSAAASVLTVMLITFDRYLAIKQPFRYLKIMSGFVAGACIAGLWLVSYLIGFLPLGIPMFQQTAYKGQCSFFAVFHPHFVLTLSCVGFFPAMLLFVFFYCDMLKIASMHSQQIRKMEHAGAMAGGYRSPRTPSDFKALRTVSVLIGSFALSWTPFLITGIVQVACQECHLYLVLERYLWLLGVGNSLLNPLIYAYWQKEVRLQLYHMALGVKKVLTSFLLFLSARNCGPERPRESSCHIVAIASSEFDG
experiment notes: cAMP assay (LANCE cAMP-384) in HEK293 cells stably expressing mutant human GPR119 receptor
Type: cell-based
experimental conditions: the 26th table; read-out: EC50
endpoint label: EC50 (nM)
Just the number please, in nM, no unit attached.

// below: answered compounds
CC(C)OC(=O)N1CCC(ON=C2CCN(c3ccc(S(C)(=O)=O)cn3)CC2)CC1 [Example 46-3]
614
CC(C)OC(=O)N1CCC(ON=C2CCN(c3ncc(S(C)(=O)=O)cc3F)CC2)CC1 [Example 46-1]
131
CC(C)OC(=O)N1CCC(ON=C2CCN(c3cc(F)c(S(C)(=O)=O)cc3F)CC2)CC1 [Example 46-2]
28

Next up:
Given CC(C)OC(=O)N1CCC(ON=C2CCN(c3ncc(S(C)(=O)=O)cn3)CC2)CC1 [Example 46-4] , state its recorded EC50.
157

====

Listing of entries alongside the reported activation at 10 µM.
assay system: human GPR119 receptor (Homo sapiens, UniProt Q8TDV5, S329A/T327A)
Construct: N-terminal leader […]; expressed in transfected cells
Sequence (Q8TDV5 with tags, fused parts or gaps T327A/S329A): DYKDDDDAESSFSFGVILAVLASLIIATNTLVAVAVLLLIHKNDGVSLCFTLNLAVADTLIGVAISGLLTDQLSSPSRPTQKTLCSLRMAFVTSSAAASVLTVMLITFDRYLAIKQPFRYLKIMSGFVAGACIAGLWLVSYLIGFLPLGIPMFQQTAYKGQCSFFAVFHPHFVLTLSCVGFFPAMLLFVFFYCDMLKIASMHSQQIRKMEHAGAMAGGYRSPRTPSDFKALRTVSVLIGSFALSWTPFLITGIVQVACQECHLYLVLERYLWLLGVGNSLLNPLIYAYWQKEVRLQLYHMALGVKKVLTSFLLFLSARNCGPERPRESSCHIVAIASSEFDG
experiment notes: cAMP assay (LANCE cAMP-384) in HEK293 cells stably expressing mutant human GPR119 receptor
Assay type: cell-based
experimental conditions: HEK293, 20 min; single concentration 10 μM; given where no EC50 value could be determined; read-out: % stimulation at 10 μM
Just the number please, in %, no unit attached.

Given CC(C)OC(=O)N1CCC(ON=C2CCN(c3cc(F)c(C4=NCCN4)cc3F)CC2)CC1 , state its recorded activation at 10 µM.
53

Given CC(C)OC(=O)N1CCC(ON=C2CCN(c3ncc(Cl)cc3F)CC2)CC1 , state its recorded activation at 10 µM.
63

Given COc1cccc(-c2cc(F)c(N3CCC(=NOC4CCN(C(=O)OC(C)C)CC4)CC3)cc2F)n1 , state its recorded activation at 10 µM.
80

====

Listing of entries alongside the reported EC50.
assay system: human GPR119 receptor (Homo sapiens, UniProt Q8TDV5, S329A/T327A)
Construct: N-terminal leader […]; expressed in transfected cells
experiment notes: cAMP assay (LANCE cAMP-384) in HEK293 cells stably expressing mutant human GPR119 receptor
Assay type: cell-based
experimental conditions: the 19th table; unit inferred; read-out: EC 50
State the result as a value with its unit after it.

CCc1cnc(N2CCC(ON=C3CCN(c4cc(F)c(C(=O)NCC5CCCN5C)cc4F)CC3)CC2)nc1 (stereo not shown) [Example 29-137]
212 nM
CCc1cnc(N2CCC(ON=C3CCN(c4cc(F)c(C(=O)N5CCCNCC5)cc4F)CC3)CC2)nc1
392 nM

Given CCc1cnc(N2CCC(ON=C3CCN(c4cc(F)c(C(=O)N5CCC[C@@H](N)C5)cc4F)CC3)CC2)nc1 , state its recorded EC50.
221 nM

Given CCc1cnc(N2CCC(ON=C3CCN(c4cc(F)c(C(=O)N5CCC[C@H]5CN)cc4F)CC3)CC2)nc1 , state its recorded EC50.
164 nM

Given CCc1cnc(N2CCC(ON=C3CCN(c4cc(F)c(C(=O)NCC5CCCN5C)cc4F)CC3)CC2)nc1 (stereo not shown) [Example 29-138] , state its recorded EC50.
185 nM

Given CCc1cnc(N2CCC(ON=C3CCN(c4cc(F)c(C(=O)NCC5CCCNC5)cc4F)CC3)CC2)nc1 (stereo not shown) , state its recorded EC50.
56 nM

Given CCc1cnc(N2CCC(ON=C3CCN(c4cc(F)c(C(=O)N5CCNC[C@@H]5C)cc4F)CC3)CC2)nc1 , state its recorded EC50.
256 nM
